The reported measurements were obtained from the RNAGym collection of RNA variant scans (doi:10.7554/elife.80360).

Could you please report measured self-cleavage for the items listed next?
B1: Hairpin Ribozyme (parent)
chain: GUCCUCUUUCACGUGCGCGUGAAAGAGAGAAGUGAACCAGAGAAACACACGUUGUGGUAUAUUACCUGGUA

variants of: B1; assay: self-cleavage, relative activity (ratio to wild type); higher = more cleavage; co-transcriptional
Form rule: numeric answer, no unit written next to it.

What does the data say about its self-cleavage? Entry: U33A A36U
0.0862

State the recorded self-cleavage for this entry: U53C G69A
0.607

Look at this variant and give its reported self-cleavage. A47C U67A
0.128

Request the reported self-cleavage associated with A36C A64U
0.309

What value of self-cleavage has been recorded for this entry: G13A G32A
0.0965

For G17A A28G , what is its reported self-cleavage?
1.14

Look up self-cleavage: G1U A23G
0.183

Param item = A47U U60G ; retrieve measured self-cleavage.
0.0964

I'd like to know its self-cleavage. The variant in question is G27A A41U
0.744

I'd like to know its self-cleavage. The variant in question is G17A A71C
1.37

Give the measured self-cleavage of U2A C6A .
0.238
